B1: TOR1AIP2 (parent)
chain: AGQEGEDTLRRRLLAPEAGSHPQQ

Variants of: B1
Assay: protein stability index of a GFP-peptide fusion (GPS, HEK-293T) (PSI 1-6); higher = more stable;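 note: lentivirally expressed fusions sorted by FACS into six bins by GFP to DsRed ratio, PSI derived from sequencing read proportions per bin multiplied by bin number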
Conditions: c terminus: a fixed tail appended
Each entry falls in a class defined on protein stability index; the bands are interval 1 (below 2), interval 2 (2 to below 3), interval 3 (3 or more)

{"columns": ["variant_name", "cat"],
 "data": [
  ["A1D", "interval 3"],
  ["A18E", "interval 3"],
  ["A18L", "interval 1"],
  ["A15P", "interval 3"],
  ["R12T", "interval 2"],
  ["Q24H", "interval 1"],
  ["Q24I", "interval 2"],
  ["E17N", "interval 3"],
  ["E4K", "interval 1"],
  ["A1I", "interval 3"],
  ["L14H", "interval 3"],
  ["S20W", "interval 2"],
  ["R12E", "interval 3"],
  ["G19I", "interval 2"],
  ["D7E", "interval 2"],
  ["A18Y", "interval 1"],
  ["R11D", "interval 3"],
  ["A1Y", "interval 2"],
  ["A15I", "interval 3"],
  ["H21C", "interval 2"]
]}
